This collection of values is drawn from patent US20090018150A1.

system-tested: cloned human 5-HT2A receptor (Homo sapiens, UniProt P28223)
Construct: purchased Euroscreen; host or cells: CHO-K1
Sequence (P28223 whole entry): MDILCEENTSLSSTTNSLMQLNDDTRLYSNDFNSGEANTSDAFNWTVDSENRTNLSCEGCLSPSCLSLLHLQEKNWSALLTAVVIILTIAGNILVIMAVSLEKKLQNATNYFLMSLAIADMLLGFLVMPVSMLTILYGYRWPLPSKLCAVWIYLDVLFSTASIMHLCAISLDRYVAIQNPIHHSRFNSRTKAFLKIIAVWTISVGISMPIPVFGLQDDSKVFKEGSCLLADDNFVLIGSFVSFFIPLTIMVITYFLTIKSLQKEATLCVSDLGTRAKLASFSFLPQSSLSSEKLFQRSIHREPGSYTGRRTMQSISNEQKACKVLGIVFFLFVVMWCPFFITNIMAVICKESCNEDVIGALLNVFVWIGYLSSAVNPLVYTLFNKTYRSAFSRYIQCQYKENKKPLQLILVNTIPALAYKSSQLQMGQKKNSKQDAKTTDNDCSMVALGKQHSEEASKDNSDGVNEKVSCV
method: Human 5-HT2A receptor binding assay
reported-conditions: [3H]ketanserin (1 nM) displacement, CHO-K1 cell membranes; read-out: 5-HT2A pKi (converted)
Protocol: The binding affinity of ligands for human 5-HT2A and 5-HT2C receptors was determined using the following assay. Membrane preparations from CHO-K1 cells expressing the cloned human 5-HT2A receptor were obtained (Euroscreen). The membranes were thawed rapidly and diluted in assay buffer containing Tris-HCl (50 mM, pH 7.7). […] Non specific binding was determined in the presence of 100 μM mianserin. […] Radioactivity retained on the filters was determined by liquid scintillation counting. […]
Structures can show the parent of a compound that is named as a salt.
observed-property: Ki

The cases that follow already have their Ki on record.
Cc1cc(Nc2cccc(-c3ccccc3)c2)nc(N)n1 [Compound 10A, trifluoroacetic acid] | > 100 nM
Cc1cc(Nc2ccc(C)c(Br)c2)nc(N)n1 [Compound 2S, hydrochloride] | > 1000 nM
COc1c(-c2cnc(N)[nH]2)ccc2ccccc12 [Compound 104E] | > 1000 nM
Cc1cc(Nc2ccccc2)nc(N)n1 | > 10000 nM
COc1ccccc1-c1cccc(-c2oc(N)nc2C)c1 [Compound 219B, trifluoroacetic acid] | > 1000 nM
CC(=O)Nc1nc(-c2cccc3sccc23)c[nH]1 [Compound 103L] | > 10000 nM
Nc1nc(-c2ccc(F)c3ccccc23)c[nH]1 [Compound 104F] | > 1000 nM
COc1ccccc1-c1cccc(Nc2nc(N)nn2C)c1 [Compound 406B] | > 1000 nM

Please find the next compound below.
Task: Request body: readout Ki, system cloned human 5-HT2A receptor (Homo sapiens, UniProt P28223), query Nc1nc(-c2ccc(-c3ccccc3)cc2)c[nH]1 [Compound 104P, 4-Biphenyl-4-yl-1H-imidazol-2-ylamine] . Return the value.
Result: > 100 nM

----------
Exercise: state measured Ki for each of the compounds provided.
system-tested: human cloned 5-HT2B receptors (Homo sapiens)
Construct: expressed in transfected cells; host or cells: CHO-K1
Sequence (P41595 whole entry): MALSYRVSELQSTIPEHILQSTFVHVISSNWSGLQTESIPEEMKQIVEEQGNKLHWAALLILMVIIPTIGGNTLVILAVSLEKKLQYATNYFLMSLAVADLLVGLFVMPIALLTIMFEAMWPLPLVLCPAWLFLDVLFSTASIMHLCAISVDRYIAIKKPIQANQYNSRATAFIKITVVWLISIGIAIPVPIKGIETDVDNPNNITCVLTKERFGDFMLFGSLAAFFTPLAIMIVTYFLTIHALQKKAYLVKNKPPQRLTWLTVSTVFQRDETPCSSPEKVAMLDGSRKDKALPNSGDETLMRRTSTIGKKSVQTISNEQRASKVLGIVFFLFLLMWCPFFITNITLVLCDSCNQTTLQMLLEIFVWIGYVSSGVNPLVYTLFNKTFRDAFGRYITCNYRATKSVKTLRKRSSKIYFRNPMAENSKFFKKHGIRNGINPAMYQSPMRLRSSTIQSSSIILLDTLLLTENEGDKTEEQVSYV
method: Human cloned 5-HT2B receptor binding assay
reported-conditions: [3H]LSD (1 nM) displacement, membranes of CHO-K1 cells expressing cloned 5-HT2B receptor; read-out: 5-HT2B pKi (converted)
Structures can show the parent of a compound that is named as a salt.

The cases that follow already have their Ki on record.
Cc1cccc(-c2ccc(Nc3nc(N)nn3C)cc2)c1 [Compound 410C, trifluoroacetic acid] | < 1 µM
CCOc1ccc2ccccc2c1-c1c[nH]c(N)n1 [Compound 104A] | < 1 µM
Nc1nc(-c2ccc(-c3ccccc3)cc2)c[nH]1 [Compound 104P, 4-Biphenyl-4-yl-1H-imidazol-2-ylamine] | < 0.316 µM
COc1ccc(-c2cccc(C)c2)cc1-c1cnc(N)o1 [Compound 224C, trifluoroacetic acid] | < 1 µM
Cc1cc(Nc2ccc3ncsc3c2)nc(N)n1 [Compound 2AB, hydrochloride] | < 1 µM

// for each compound below, give its Ki
1. COc1ccccc1-c1cccc(Nc2cc(C)nc(N)n2)c1 [Compound 10F, trifluoroacetic acid]
2. Cc1cc(Nc2cccc(CO)c2)nc(N)n1 [Compound 2X, hydrochloride]
3. Cc1cc(Nc2ccccc2)nc(N)n1 [Compound 2A]
4. COc1ccccc1-c1cccc(-c2nc(N)oc2C)c1 [Compound 218C, trifluoroacetic acid]
5. Cc1cc(Nc2cccc(I)c2)nc(N)n1 [Compound 2G, hydrochloride]
6. CC(=O)Nc1nc(-c2cccc3ccccc23)c(C)[nH]1 [Compound 103I]
7. Cc1cc(Nc2cc(Br)ccc2Br)nc(N)n1 [Compound 2AJ, trifluoroacetic acid]

Result:
1: < 0.1 µM; 2: < 1 µM; 3: < 1 µM; 4: < 0.316 µM; 5: < 0.1 µM; 6: < 0.1 µM; 7: < 0.1 µM

----------
system-tested: cloned human 5-HT2A receptor (Homo sapiens, UniProt P28223)
Construct: purchased Euroscreen; host or cells: CHO-K1
method: Human 5-HT2A receptor binding assay
reported-conditions: [3H]ketanserin (1 nM) displacement, CHO-K1 cell membranes; read-out: 5-HT2A pKi (converted)
Where a name gives a salt, the structure may show the parent alone.
Exercise: state measured Ki for each of the compounds provided.

The cases that follow already have their Ki on record.
Cc1cc(Nc2ccc3c(c2)CCC3)nc(N)n1 [Compound 2J, hydrochloride] | > 10 µM
Cc1cc(Nc2ccc(N3CCOCC3)cc2)nc(N)n1 [Compound 2K, hydrochloride] | > 10 µM
CC(=O)Nc1ccc(Nc2cc(C)nc(N)n2)cc1 [Compound 2V, hydrochloride] | > 1 µM

Please find the next compound below.
Task: Request body: readout Ki, system cloned human 5-HT2A receptor (Homo sapiens, UniProt P28223), query Cc1cc(C)cc(-c2cccc(-c3cnc(N)o3)c2)c1 [Compound 209K, trifluoroacetic acid] . Return the value.
Result: > 1 µM

----------
system-tested: cloned human 5-HT2C receptor (Homo sapiens, UniProt P28335)
Construct: purchased Euroscreen; host or cells: CHO-K1
Sequence (P28335 33-458): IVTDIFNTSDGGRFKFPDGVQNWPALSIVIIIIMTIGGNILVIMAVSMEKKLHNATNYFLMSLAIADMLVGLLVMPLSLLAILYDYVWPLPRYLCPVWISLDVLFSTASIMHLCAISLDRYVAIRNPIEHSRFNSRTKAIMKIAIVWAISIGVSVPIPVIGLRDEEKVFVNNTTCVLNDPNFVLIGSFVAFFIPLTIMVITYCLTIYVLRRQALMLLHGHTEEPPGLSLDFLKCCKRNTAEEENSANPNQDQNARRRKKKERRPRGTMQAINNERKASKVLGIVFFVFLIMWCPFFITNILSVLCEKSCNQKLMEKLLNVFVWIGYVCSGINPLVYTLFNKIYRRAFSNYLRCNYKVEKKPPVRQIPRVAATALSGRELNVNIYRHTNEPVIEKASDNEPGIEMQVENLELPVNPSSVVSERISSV
method: Human 5-HT2C receptor binding assay
reported-conditions: [3H]mesulergine (1 nM) displacement, CHO-K1 cell membranes; read-out: 5-HT2C pKi (converted)
Where a name gives a salt, the structure may show the parent alone.
Exercise: state measured Ki for each of the compounds provided.

Cc1nc(N)oc1-c1cccc(-c2ccccc2)c1 [Compound 219A, trifluoroacetic acid] | > 1000 nM

// for each compound below, give its Ki
1. CC(=O)c1cccc(-c2cccc(Nc3cc(C)nc(N)n3)c2)c1 [Compound 10C, trifluoroacetic acid]
2. Nc1nccc(Nc2ccc(I)cc2)n1
3. Cc1cc(Nc2ccc(I)cc2)nc(N)n1 [Compound 2E, hydrochloride]
4. Cc1cc(Nc2cccc(I)c2)nc(N)n1 [Compound 2G, hydrochloride]

Result:
1. > 316 nM
2. > 1000 nM
3. > 316 nM
4. > 316 nM

// for each compound below, give its Ki
1. Nc1ncc(-c2cccc(-c3ccccc3)c2)o1 [Compound 209A, 5-Biphenyl-3-yl-oxazol-2-ylamine]
2. Cc1cc(Nc2ccc(N3CCOCC3)cc2)nc(N)n1 [Compound 2K, hydrochloride]
3. Nc1nc(-c2cccc(-c3ccccc3)c2)c[nH]1

Result:
> 10000 nM
> 10000 nM
> 100 nM

----------
system-tested: cloned human 5-HT2A receptor (Homo sapiens, UniProt P28223)
Construct: purchased Euroscreen; host or cells: CHO-K1
method: Human 5-HT2A receptor binding assay
reported-conditions: [3H]ketanserin (1 nM) displacement, CHO-K1 cell membranes; read-out: 5-HT2A pKi (converted)
Where a name gives a salt, the structure may show the parent alone.
observed-property: Ki

// for each compound below, give its Ki
1. Cn1nc(Nc2ccc(-c3ccccc3)cc2)nc1N [Compound 411A, trifluoroacetic acid]
2. CCOc1ccc2ccccc2c1-c1c[nH]c(N)n1 [Compound 104A]

Result:
["> 1000 nM", "> 1000 nM"]

// for each compound below, give its Ki
1. Cc1cc(Nc2ccc(I)c(Cl)c2)nc(N)n1 [Compound 2Y, hydrochloride]
2. Cc1cc(Nc2ccc(F)cc2)nc(N)n1 [Compound 2I, hydrochloride]
3. CC(=O)Nc1cccc(-c2cccc(Nc3cc(C)nc(N)n3)c2)c1 [Compound 10I, hydrochloride]
4. Cc1cc(Nc2cc(Br)ccc2C)nc(N)n1
5. Cc1cccc(-c2cccc(-c3cnc(N)o3)c2)c1 [Compound 209B]
6. COc1ccc2ccccc2c1-c1c[nH]c(N)n1 [Compound 104C]
7. Cc1[nH]c(N)nc1-c1cccc2ccccc12 [Compound 104I]
8. Cc1cc(Nc2cccc(-c3cccnc3)c2)nc(N)n1 [Compound 10D, bis trifluoroacetic acid]

Result:
1: > 1000 nM; 2: > 10000 nM; 3: > 10000 nM; 4: > 1000 nM; 5: > 10000 nM; 6: > 1000 nM; 7: > 3160 nM; 8: > 1000 nM

// for each compound below, give its Ki
1. Cc1cc(Nc2cccc(-c3ccc(N(C)C)cc3)c2)nc(N)n1 [Compound 10H, bis trifluoroacetic acid]
2. COc1ccccc1-c1cccc(-c2cnc(N)o2)c1 [Compound 209G, trifluoroacetic acid]
3. Cc1cc(Nc2cccc(C(F)(F)F)c2)nc(N)n1 [Compound 2H, hydrochloride]

Result:
> 316 nM
> 1000 nM
> 10000 nM

// for each compound below, give its Ki
1. COc1ccc(-c2ccccc2)cc1-c1cnc(N)o1 [Compound 224A, trifluoroacetic acid]
2. COc1ccccc1-c1cccc(-c2nc(N)oc2C)c1 [Compound 218C, trifluoroacetic acid]
3. CC(=O)Nc1nc(-c2cccc3ccc(Br)cc23)c[nH]1 [Compound 103G]
4. Cc1cc(Nc2cccc(CO)c2)nc(N)n1 [Compound 2X, hydrochloride]

Result:
["> 1000 nM", "> 1000 nM", "> 1000 nM", "> 1000 nM"]

Task: Requested read-out: Ki. Entry: Cc1c(-c2cnc(N)[nH]2)sc2ccccc12 [Compound 104O]
Result: > 10000 nM
